Reported CC50 values for the following compounds.
- System: A549
- assay procedure: Cytotoxicity against human A549 cells by MTT assay
- Type: cell-based

Some compounds with known CC50 results, for comparison:
{"compound": "CCN(c1ccc(CC(=O)O)cc1)S(=O)(=O)c1cc(Cl)ccc1Cl", "target or test system": "A549", "CC50": "> 25 µM"}
{"compound": "CCN(c1ccc(C)cc1)S(=O)(=O)c1cc(Cl)ccc1Cl", "target or test system": "A549", "CC50": "> 25 µM"}
{"compound": "C=CCN(c1ccc(Cl)cc1C)S(=O)(=O)c1cc(Cl)ccc1Cl", "target or test system": "A549", "CC50": "> 5 µM"}
{"compound": "Cc1ccccc1N(C)S(=O)(=O)c1cc(Cl)ccc1Cl", "target or test system": "A549", "CC50": "> 5 µM"}
{"compound": "CCN(c1ccccc1Cl)S(=O)(=O)c1cc(Cl)ccc1Cl", "target or test system": "A549", "CC50": "> 5 µM"}
{"compound": "CCN(c1ccc(F)cc1F)S(=O)(=O)c1cc(Cl)ccc1Cl", "target or test system": "A549", "CC50": "> 5 µM"}
{"compound": "CCN(c1ccc(CCN)cc1)S(=O)(=O)c1cc(Cl)ccc1Cl", "target or test system": "A549", "CC50": "> 25 µM"}
{"compound": "CCN(c1ccccc1)S(=O)(=O)c1cc(Cl)ccc1Cl", "target or test system": "A549", "CC50": "> 5 µM"}
{"compound": "C=CCN(c1ccccc1C)S(=O)(=O)c1cc(Cl)ccc1Cl", "target or test system": "A549", "CC50": "> 5 µM"}
{"compound": "CCN(c1ccc(Cl)cc1F)S(=O)(=O)c1cc(Cl)ccc1Cl", "target or test system": "A549", "CC50": "> 5 µM"}

Asked: Requested field: CC50. Item: CCN(c1c(C)cc(Cl)cc1Cl)S(=O)(=O)c1cc(Cl)ccc1Cl
Given back: > 5 µM

Asked: Requested field: CC50. Item: CCN(c1ccc(F)cc1)S(=O)(=O)c1cc(Cl)ccc1Cl
Given back: > 5 µM

Asked: Requested field: CC50. Item: Cc1cc(Cl)ccc1N(CCO)S(=O)(=O)c1cc(Cl)ccc1Cl
Given back: > 5 µM

Asked: Requested field: CC50. Item: CCN(c1ccc(CCNC(C)=O)cc1)S(=O)(=O)c1cc(Cl)ccc1Cl
Given back: > 25 µM

---

- Test system: A549
- assay procedure: Cytotoxicity against human A549 cells by MTT assay
- Format: cell-based
Reported CC10 values for the following compounds.

Some compounds with known CC10 results, for comparison:
{"compound": "CCN(c1ccc(F)cc1)S(=O)(=O)c1cc(Cl)ccc1Cl", "val": "> 5 µM"}
{"compound": "CCN(c1ccc(Cl)cc1C)S(=O)(=O)c1cc(Cl)ccc1Cl", "val": "> 5 µM"}

Please examine the following record next.
Asked: Requested field: CC10. Item: CCN(c1ccc(F)cc1F)S(=O)(=O)c1ccc(Cl)cc1Cl
Given back: > 25 µM

---

- Test system: A549
- assay procedure: Cytotoxicity against human A549 cells by MTT assay
- Format: cell-based
Reported CC50 values for the following compounds.

Some compounds with known CC50 results, for comparison:
{"compound": "Cc1cc(Cl)ccc1N(C(F)F)S(=O)(=O)c1cc(Cl)ccc1Cl", "val": "> 5 µM"}
{"compound": "CCOC(=O)Cc1ccc(N(CC)S(=O)(=O)c2cc(Cl)ccc2Cl)cc1", "val": "> 5 µM"}
{"compound": "CCN(c1ccc(CC(=O)N2CCN(C)CC2)cc1)S(=O)(=O)c1cc(Cl)ccc1Cl", "val": "> 25 µM"}
{"compound": "COCCN(c1ccc(Cl)cc1C)S(=O)(=O)c1cc(Cl)ccc1Cl", "val": "> 5 µM"}

Please examine the following record next.
Asked: Requested field: CC50. Item: Cc1ccccc1NS(=O)(=O)c1cc(Cl)ccc1Cl
Given back: > 5 µM
